What protein stability index was measured for each of the following?
# assayProtocol: protein stability index of a GFP-peptide fusion (GPS, HEK-293T) (PSI 1-6); higher = more stable;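 note: 24-mer peptide tiles fused after GFP, lentivirally expressed, FACS-sorted into six equal bins by GFP/DsRed ratio, decoded by Illumina sequencing, PSI is the read-weighted mean bin number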
# runConditions: treatment: MLN4924 1 uM, 8 h; c terminus: a fixed tail appended
Answer with a number only.

Q) For the sequence shown here, LTMAATFDDCLYALCVVDTIKRSS [GFOD1] , give the reported protein stability index.
A) 2.68

Q) Please do the same for TLDKCGICQGDGSSCTHVTGNYRK [ADAMTSL2] as well.
A) 4.97

Q) Subsequent entry: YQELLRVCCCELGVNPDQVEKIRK [ANKRD40]
A) 2.55

Q) Consider next the sequence `MAHVDFRPPAYSPAQRSHTYTHGL` in the same way.
A) 2.88

Q) Now try EYIDPETKKHIPYREHKSLTGTAR [CSNK1G1] .
A) 4.08

Q) Item: EAVFLRAVKLYNSGDFRSSTEDME [P3H4]
A) 3.73

Q) Repeat with ENKQVVIIHHMRLQAKALQLIVTA [INTS4]
A) 3.03

Q) What about this sequence? RAPAEKPRGARCSNGFPERDPPRP [GCH1]
A) 4.43

Q) Next sequence up: LMVDFAQERQMLQALKFLPVPSAP [FSD1]
A) 2.22

Q) How about GVYMTDITPQGVAMRAGVLADDHL [PDZK1] ?
A) 3.34

Q) Please do the same for HNGDMEKILLDAQHESGQSSSRGS [BNIP3L] as well.
A) 5.32

Q) Would you mind doing GLDFHRFYFENLWSRNSKPVHTTI [CAMK2A] as well?
A) 2.11

Q) Continue with DTFKVPKEMFTVGCCVFAFLVGLL [SLC6A17]
A) 2.21

Q) And the next one, MCKADLSRNFIERNHMENGGDHRY [TRIM29] ?
A) 3.33

Q) Field entry: VGVRMRDVKCYQGTDIVRGCDPLV [ADAMTSL2]
A) 3.09

Q) Please give the result for FSETHADPHNSRRGFFFSHVGWLL [SCD] too.
A) 2.15

Q) How about SRQLLPGDEFSLREHELLCRADHG [ISL2] ?
A) 4.27

Q) And what about the sequence DPEEAIRHDVIVSIVTAAKKDILL [PDS5B] ?
A) 2.54

Q) Same for PEEKIWEELSVLEVFEGREDSIFG [MAGEA6]
A) 4.17

Q) Next sequence: PGEFSDASMSPDATKPSHWCSVAY [SMAD6]
A) 3.14

Q) Now consider KYLKKREDSIPLRGLSQNLFSNSD [SASS6] and answer again.
A) 3.4

Q) Note, next up: AASLAGCLGALCENTCLLRGFSGG [TSPAN10]
A) 2.37

Q) And for LAAVAWVGQQVHNLLLTYLIVTSL [ARL6IP1] ?
A) 3.3

Q) Repeat with RLQVKEHQHEEIQNVRNHIHSCFS [ATL3]
A) 3.23

Q) Now consider VEKIRKLPNTLLRKDKDVARLQDF [ANKRD40] and answer again.
A) 3.02

Q) Now the sequence FLGSTEVEQPKGTEVVRDAVRKLK [GULP1]
A) 4.62

Q) Also IIIRSEVPGIFCAGADLKERAKMS [AUH] ?
A) 1.95

Q) Continue with WSGEVKDKNVQVVELPIVDSLHPR [FUT8]
A) 4.29

Q) Try the sequence SYMLQDSLEHVQLFDLMRRMLEFD [CLK3]
A) 2.47

Q) Do the same for REVALLRRLEAFEHPNVVRLMDVC [CDK4] please
A) 2.68

Q) Now try GVGKSALTVQFVQGIFVEKYDPTI [RAP1B] .
A) 2.07

Q) Next sequence: ILSGLDDMSIGGNLSKTQNMERFG [CDC14A]
A) 3.08

Q) # iterate: GGRKGRTLLLQGHHDKVQSLCYLQ [WDFY1]
A) 2.73

Q) Request: EPGNFIPLFTPQSPVTATLSDEDD [CDC25A]
A) 5.69

Q) Same question, RGSKMFKLRQMRVEKFIYENHPDV [MYOZ1] this time
A) 2.52

Q) Try this sequence next: GLLAGVGYFAFMLFRKRLGSMILA [GDAP1]
A) 2.37

Q) Next entry: FGYRPYDKNISPRENILVSLGAVG [SCD]
A) 2.75

Q) Further, for RSVIEVPAVPEEILKRLLKEQHLW [DLC1] ?
A) 2.69

Q) Same lookup for IGDVHLAPFTDEQLYMEQFTKANF [CARM1] , please.
A) 3.03

Q) // repeat for QKLYVRLFQRKLSWIKMTKLEYEE [FAN1] and report
A) 2.44

Q) Repeat with DGDDKVFRRAPSWRKRFRPREHHG [PPFIA4]
A) 4.58

Q) Next record, please: HSVLVDDDGIKVVKVTFNKQDSLV [TMEM106C]
A) 3.18

Q) Consider next the sequence NTTCVGRYPVCKFPSLQVTAILIE [FEM1C] in the same way.
A) 2.23

Q) Same question for VVQEPPGRASRFLQSISWDPEDFE [TLE6] please.
A) 4.65

Q) What would you report for RQILHLITMMALKVLGELNILPNT [TENT5D] ?
A) 2.81

Q) Follow-up item: STHQEAENEKDRADQTVLTEDEKK [CHGB]
A) 5.83

Q) Same question for ELGEEPQPRDEEEAELELLRQFDL [POLD4] please.
A) 5.51

Q) Item: EHQPDNIKALFRKGKVLAQQGEYS [FKBP8]
A) 3.87

Q) Do the same for HQPKGLEEENAQLRGALQQGEAFQ [PBXIP1] please
A) 5.05

Q) Check IFPRLSFKDKSTYIESSTKVYDDM [CLPTM1] too.
A) 3.15

Q) And the next one, LHASTVKRYGLGAHRGRLNIQAGI [CPXM2] ?
A) 2.51

Q) Same lookup for AKVKLVFVEDQAVVETVFFLTSRT [ZSWIM9] , please.
A) 3.01

Q) Another: VDFNTLKSIGSEPHEDHVFLVANF [MATN2]
A) 2.18

====

# assayProtocol: protein stability index of a GFP-peptide fusion (GPS, HEK-293T) (PSI 1-6); higher = more stable
# runConditions: treatment: DMSO; c terminus: a fixed tail appended
Response key: yes (1) means protein stability index >= 3; no (0) means protein stability index < 3.

Q) Does protein stability index meet or surpass 3 for RKLSPTEPKNYGSYSTQASAAAAT [SCAMP3] ?
A) yes (1)

Q) What would you report for SQEESEEGEEDATSEVDKRRTRPR [CHGB] ?
A) yes (1)

Q) What about LGKESFYDTFHTVADMMYFCQMLA [HACD3] ?
A) no (0)

Q) Another sequence: GGVMYISGGITHDTFQKELMCFDP [KLHL13]
A) no (0)

Q) Next sequence: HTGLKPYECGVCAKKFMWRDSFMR [ZBTB22]
A) no (0)

Q) // repeat for SHPRVQSGCDKEALLTGGGSENRN [RNF180] and report
A) yes (1)

Q) Then what about the sequence LLEQGAQVNRRSAKGNTALHDCAE [FEM1A] ?
A) yes (1)

Q) Another sequence to look at: SEHFKTTSQKVARKFWWKNVKMIV [VAMP8]
A) no (0)

Q) Queued: GVGKSALTVQFVQGIFVEKYDPTI [RAP1B]
A) no (0)

Q) Lookup VPRPGIPPMTQAQAVSAPGILNRP [ZNF207]
A) yes (1)

Q) How about QQPSKHRTDEELQPPTTTVARSGT [PLK2] ?
A) yes (1)

Q) Next record, please: TDSPWIKPARKRRRRSRKKPSGAL [EHMT1]
A) yes (1)

Q) Do the same for HVKEQLPCAGLNCQALDANLDANL [TLE6] please
A) yes (1)

====

Provide the reported protein stability index of each item.
# assayProtocol: protein stability index of a GFP-peptide fusion (GPS, HEK-293T) (PSI 1-6); higher = more stable
# runConditions: treatment: MLN4924 1 uM, 8 h; c terminus: a fixed tail appended

Q) Recorded protein stability index of MLSWILRINLVAAIFSAPAFPAAV [PSD2] , please.
A) 2.89

Q) Similarly, VKETGYFFIYGQVLYTDKTYAMGH [TNFSF13B] ?
A) 2.41

Q) Follow-up entry: ELQSLMHQPKGLEEENAQLRGALQ [PBXIP1]
A) 4.04

Q) Record: AGRPRAERRPRRVEAERPHSLIGV [FAM189A2]
A) 3.94

Q) And the next one, NMKNGANDVKHHRWFRSVDWEAVP [PRKX] ?
A) 3.08

Q) What do we get for LLKLEQNTCSVITTLKGHEGSVAC [WDFY1] ?
A) 3.29

Q) Entry to check: TLAQAHFNNGEYAEAEALYSAYIR [TTC32]
A) 3.39

These entries and their values trace back to the supplement of paper PMC10567573.
